B1: ESRRA (parent)
chain: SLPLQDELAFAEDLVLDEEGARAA

Variants of: B1
measurementDescription: protein stability index of a GFP-peptide fusion (GPS, HEK-293T) (PSI 1-6); higher = more stable;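 note: lentivirally expressed fusions sorted by FACS into six bins by GFP to DsRed ratio, PSI derived from sequencing read proportions per bin multiplied by bin number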
conditionSet: c terminus: a fixed tail appended
parameterMeasured: protein stability index
Reply with just the number.

>>> experimentalresult("S1E")
2.94
>>> experimentalresult("S1T")
3.01
>>> experimentalresult("A9C")
4.11
>>> experimentalresult("A24M")
2.97

Next variant, protein stability index to be filled in.
Give its protein stability index value. Item: A21N
2.91
